- target.under.test: TEC (Homo sapiens)
- Sequence (P42680 whole entry): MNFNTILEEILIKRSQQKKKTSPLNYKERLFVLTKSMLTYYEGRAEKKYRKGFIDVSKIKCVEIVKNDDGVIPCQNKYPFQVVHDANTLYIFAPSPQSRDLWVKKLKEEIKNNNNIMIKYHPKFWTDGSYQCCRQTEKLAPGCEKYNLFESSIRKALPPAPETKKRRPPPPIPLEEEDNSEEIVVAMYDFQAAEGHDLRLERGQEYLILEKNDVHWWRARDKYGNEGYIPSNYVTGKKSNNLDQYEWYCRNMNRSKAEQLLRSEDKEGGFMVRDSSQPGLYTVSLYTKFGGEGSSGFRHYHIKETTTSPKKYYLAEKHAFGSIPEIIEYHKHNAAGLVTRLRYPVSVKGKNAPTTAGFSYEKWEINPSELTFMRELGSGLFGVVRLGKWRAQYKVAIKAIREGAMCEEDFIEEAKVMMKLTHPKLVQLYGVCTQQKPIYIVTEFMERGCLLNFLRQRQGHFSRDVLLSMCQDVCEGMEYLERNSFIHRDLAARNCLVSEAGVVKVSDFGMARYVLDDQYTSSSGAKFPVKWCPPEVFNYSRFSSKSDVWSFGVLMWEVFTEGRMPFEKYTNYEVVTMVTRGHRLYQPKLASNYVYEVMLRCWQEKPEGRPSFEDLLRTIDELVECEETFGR
- protocol.summary: Inhibition of a panel of kinases (in vitro HotSpot kinase assay, 33P-ATP, 1 μM ATP)
- Type: biochemical
- condition.description: ratio of TEC IC50 to Btk IC50 (selectivity)
Rule: TEC/Btk below 400 gives Fulfilled, anything at or above gives Not fulfilled.

- C[C@H]1CC[C@@H](Nc2n[nH]c3nccc(-c4ccc(CNC(=O)c5noc(C(C)(C)C)n5)cc4)c23)CN1C(=O)N(C)C: Not fulfilled
- C[C@H]1CC[C@@H](Nc2n[nH]c3nccc(-c4ccc(CNC(=O)c5noc(C(C)(C)C)n5)c(F)c4)c23)CN1C=O: Not fulfilled
- C=CC(=O)N1CCC[C@@H](Nc2n[nH]c3nccc(-c4ccc(CNC(=O)c5noc(C(C)(C)C)n5)c(F)c4)c23)C1: Not fulfilled
- CN(C)C(=O)N1CC[C@@H](Oc2n[nH]c3nccc(-c4ccc(CNC(=O)c5noc(C(C)(C)C)n5)c(F)c4)c23)C1: Not fulfilled
- CC1(C(=O)N2CC[C@@H](Nc3n[nH]c4nccc(-c5ccc(C6(NC(=O)c7noc(C(C)(C)C)n7)CC6)cc5)c34)C2)COC1: Fulfilled
